target: Human immunodeficiency virus type 1 integrase (Human immunodeficiency virus 1, UniProt Q7ZJM1); experiment: Inhibitory concentration of compound against strand transfer of HIV-1 integrase in experiment 1&2
Sequence (Q7ZJM1 whole entry): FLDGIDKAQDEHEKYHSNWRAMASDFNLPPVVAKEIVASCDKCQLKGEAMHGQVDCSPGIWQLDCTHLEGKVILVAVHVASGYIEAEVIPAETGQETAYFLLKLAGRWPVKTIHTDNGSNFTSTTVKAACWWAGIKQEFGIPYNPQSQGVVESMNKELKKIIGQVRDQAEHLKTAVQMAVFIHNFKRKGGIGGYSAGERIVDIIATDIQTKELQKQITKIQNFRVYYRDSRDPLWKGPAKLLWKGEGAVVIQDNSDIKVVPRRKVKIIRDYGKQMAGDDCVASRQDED
parameter: IC50 (µM)
One number for each entry, in µM.

Answered examples (2):
So for COC(=O)c1c(C)c2c(c(C)c1O)OC(=O)c1c(C)cc(O)c(C=O)c1O2 , the logged IC50 turned out to be 4.4

The molecule Cc1cc(O)c(C=O)c2c1C(=O)Oc1c(COC(=O)/C=C/C(=O)O)c(O)c(C(=O)O)c(C)c1O2 showed IC50 equal to 4.6

Consider now this further molecule.
The molecule listed as CC(=O)C1=C(O)C=C2Oc3c(C(C)=O)c(O)c(C)c(O)c3[C@@]2(C)C1=O [(+)-USNIC ACID] shows IC50 equal to 124

* * *

molecular target: Human immunodeficiency virus type 1 integrase (Human immunodeficiency virus 1); assay: Inhibitory concentration of compound against 3'-processing of HIV-1 integrase in experiment 2
parameter: pIC50
Give bare numbers, as −log10 of the molar value.

Working through the 4 compounds below one at a time, give pIC50 for each.
1. O=C(O)c1ccccc1C(c1cc(Br)c(O)c(Br)c1)c1ccc(Br)c(O)c1Br (stereo not given)
2. Cc1cc(C(O)(c2cc(C)c(O)c(C(=O)O)c2)c2cc(C)c(O)c(C(=O)O)c2)cc(C(=O)O)c1O
3. Cc1cc(O)c(C=O)c2c1C(=O)Oc1c(CO)c(O)c3c(c1O2)C(O)OC3=O (stereo not given)
4. O=C1C(O)=C(c2ccccc2)C12CSC1(CS2)C(=O)C(O)=C1c1ccccc1 (stereo not given)

Ans:
4.59
4.48
4.80
4.22

Sample COc1cc(C(=O)O)c2c(c1C)OC(=O)c1c(C)cc(O)c(C=O)c1O2 ; pIC50 observed: 4.82

* * *

molecular target: Human immunodeficiency virus type 1 integrase (Human immunodeficiency virus 1, UniProt Q7ZJM1); experiment: Inhibitory concentration of compound against 3'-processing of HIV-1 integrase in experiment 1
Please respond with reported IC50 for every item in the list.
One number for each entry, in µM.

The recorded IC50 for entry Cc1cc(C(c2cc(C)c(O)c(C(=O)O)c2)c2cc(C)c(O)c(C(=O)O)c2)cc(C(=O)O)c1O equals 20.4

Item: COC(=O)c1c(C)cc(OC(=O)c2c(C)cc(O)c(C=O)c2O)c(C)c1O | IC50: 61

Item: O=C(/C=C/c1ccc(O)c(O)c1)O[C@@H]1C[C@](O)(C(=O)O)C[C@@H](O)[C@H]1O (single isomer, unassigned) | IC50: 87.8

Given item Cc1cc(O)c(C=O)c2c1C(=O)Oc1c(CO)c(O)c3c(c1O2)C(O)OC3=O (centres undefined) , the value recorded as its IC50 is 19

For this compound ( Cc1c2cc(O)c(=O)cc-2oc2cc(O)c(O)cc12 ), measured IC50 is 1.1

Look up IC50 for the entries below, preserving their order.
1. COc1cc(C)c2c(c1C=O)Oc1c(c(C)c(O)c3c1C(O)OC3=O)OC2=O (centres undefined)
2. Cc1ncc(COP(=O)(O)O)c(C2NC(C(=O)O)CS2)c1O (centres undefined)

Ans:
[4.4, 91.7]

* * *

Hi there, I'd appreciate the recorded pIC50 for every entry that follows.
target: Human immunodeficiency virus type 1 integrase (Human immunodeficiency virus 1); test: Inhibitory concentration of compound against strand transfer of HIV-1 integrase in experiment 2
One number for each entry, as −log10 of the molar value.

The value of pIC50 measured for the molecule O=C(/C=C/c1ccc(O)c(O)c1)O[C@H]1[C@H](O)C[C@](O)(C(=O)O)C[C@H]1OC(=O)/C=C/c1ccc(O)c(O)c1 turned out to be 6.15

Memo: O=C(c1ccc(O)cc1O)C1C(c2ccc(O)cc2)OC(c2ccc(O)cc2)C1C(=O)c1ccc(O)cc1O (stereo unspecified) , reported pIC50: 3.89

Input O=C(NC(Cc1ccc(O)c(O)c1)C(=O)OCc1ccccc1)c1ccc([N+](=O)[O-])cc1 (stereo unspecified) . Output pIC50: 4.12

Lab note: O=[N+]([O-])c1cccc(/C=N/CCN2CCN(CC/N=C/c3cccc([N+](=O)[O-])c3O)C2c2cccc([N+](=O)[O-])c2O)c1O gave pIC50 of 4.31

Lab book: pIC50 of O=C1C(O)=C(c2ccccc2)C12CSC1(CS2)C(=O)C(O)=C1c1ccccc1 (stereo unspecified) noted as 4.26

From here, focus on the item given below.
Recorded pIC50 (molecule O=C1OC2C(O)COC2(O)C1(O)Cc1cc(O)c(O)c(Br)c1Br (stereo unspecified) ): 4.61
